Where these numbers come from: patent US20220259295A1

Each item that follows carries a reported IC50 (thrombin activity assay, 10 nM PN-1, 1 nM thrombin).
ASSAY SYSTEM: T1, murine protease nexin-1 (murine, UniProt Q07235 20-397)
T1 sequence (looked up): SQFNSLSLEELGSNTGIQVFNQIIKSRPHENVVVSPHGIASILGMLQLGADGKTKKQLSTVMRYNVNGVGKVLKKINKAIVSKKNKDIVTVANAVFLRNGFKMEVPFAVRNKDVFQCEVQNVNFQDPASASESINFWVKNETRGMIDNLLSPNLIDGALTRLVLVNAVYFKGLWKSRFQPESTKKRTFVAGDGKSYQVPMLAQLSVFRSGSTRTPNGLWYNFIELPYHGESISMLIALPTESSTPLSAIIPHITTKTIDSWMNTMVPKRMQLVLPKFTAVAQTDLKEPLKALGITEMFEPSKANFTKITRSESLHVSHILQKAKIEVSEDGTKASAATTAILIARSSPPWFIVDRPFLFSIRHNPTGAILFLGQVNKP
MEASUREMENT PROTOCOL: cell-based or functional assay
Supply the numeric figure in nM, leaving out any unit text.

Worked set:
{"columns": ["BINDER", "EXPERIMENTAL VALUE"],
 "data": [
  ["B11-F06 (VHH, Bivalent (biparatopic) tandem B11-linker-F06; also called bivalent hybribody B11-F06; bivalent VHH B11F06) EVQLQASGGGFVQPGGSLRLSCAASGSTWFREIMGWFRQAPGKEREFVSAISSDPTWHAYYADSVKGRFTISRDNSKNTVYLQMNSLRAEDTATYYCAPLAGTESIHWWDPWHESSYWGQGTQVTVSSGGGSGGGSGGGSGGGSEVQLQASGGGFVQPGGSLRLSCAASGDTWSLEIMGWFRQAPGKEREFVSAISSEDGWHAYYADSVKGRFTISRDNSKNTVYLQMNSLRAEDTATYYCAKIENWIQAVEGEMSDYWGQGTQVTVSSHHHHHH", 414],
  ["B11-Bv (VHH, Bivalent (monoparatopic) tandem of two B11 VHHs; also called bivalent hybribody B11-Bv; bivalent VHH B11bv) EVQLQASGGGFVQPGGSLRLSCAASGSTWFREIMGWFRQAPGKEREFVSAISSDPTWHAYYADSVKGRFTISRDNSKNTVYLQMNSLRAEDTATYYCAPLAGTESIHWWDPWHESSYWGQGTQVTVSSAAAEVQLQASGGGFVQPGGSLRLSCAASGSTWFREIMGWFRQAPGKEREFVSAISSDPTWHAYYADSVKGRFTISRDNSKNTVYLQMNSLRAEDTATYYCAPLAGTESIHWWDPWHESSYWGQGTQVTVSSHHHHHH", 825],
  ["B11-A08 (VHH, Bivalent (biparatopic) tandem B11-linker-A08; also called bivalent hybribody B11-A08; bivalent VHH B11A08) EVQLQASGGGFVQPGGSLRLSCAASGSTWFREIMGWFRQAPGKEREFVSAISSDPTWHAYYADSVKGRFTISRDNSKNTVYLQMNSLRAEDTATYYCAPLAGTESIHWWDPWHESSYWGQGTQVTVSSGGGSGGGSGGGSGGGSEVQLQASGGGFVQPGGSLRLSCAASGYYSYSSTMGWFRQAPGKEREFVSAISFYSDMAHYYADSVKGRFTISRDNSKNTVYLQMNSLRAEDTATYYCAAFSKLGKIKYWGQGTQVTVSSHHHHHH", 524]
]}

Next, consider the following binder.
Task: Requested field: IC50 (thrombin activity assay, 10 nM PN-1, 1 nM thrombin). Item: B11 (VHH, Monovalent VHH from the synthetic hs2dAb library, made in E. coli WK6, purified by its His tag, detected by anti-cMyc or anti-6xHis; also called VHH B11; BI 1; not shown: cMyc tag and 6xHis tag (pHEN2 vector)) VHH: EVQLQASGGGFVQPGGSLRLSCAASGSTWFREIMGWFRQAPGKEREFVSAISSDPTWHAYYADSVKGRFTISRDNSKNTVYLQMNSLRAEDTATYYCAPLAGTESIHWWDPWHESSYWGQGTQVTVSS
Result: 1580
